target: Human autotaxin enzyme (Homo sapiens, UniProt Q13822); construct: purchased R&D System; assay: Evaluation of autotaxin inhibitor, Method C (Test Example 3): 18:0 Lyso PC, choline assay, Resorufin fluorescence; assay type: biochemical; conditions: Assay Method C (Test Example 3), human autotaxin, 18:0 Lyso PC substrate; read-out: Inhibitory Activity (autotaxin enzyme inhibitory activity, IC50 class)
As shown below, each of these compounds has a reported IC50 value.

Guide cases for IC50, answers given:
[
  {
    "compound": "CCCCCn1c(N2CCC[C@H]2C(=O)NC(C)CC(=O)O)cc(=O)n2cc(-c3ccc(Cl)cc3)nc12 (stereo partly shown)",
    "IC50": "< 10 nM"
  },
  {
    "compound": "CCCCCn1c(N2CCC3(COC3)C2)cc(=O)n2cc(-c3ccc(Cl)cc3)nc12",
    "IC50": "10 to 100 nM"
  }
]

Look at this compound and give its reported IC50. CCCCCn1c(-c2ccc(S(=O)(=O)NC)cc2)cc(=O)n2cc(-c3ccc(Cl)cc3)nc12
10 to 100 nM

Look at this compound and give its reported IC50. CCCCCn1c(N2CCC[C@H]2C(=O)N2CCC[C@@H](C(=O)OCC)C2)cc(=O)n2cc(-c3ccc(Cl)cc3)nc12
10 to 100 nM
